Test system: Mycolicibacterium smegmatis
Assay: Antimycobacterial activity against Mycobacterium smegmatis MC2 155 harboring pSMT1 carrying luxAB gene after 6 days by luminescence based serial dilution method
Format: functional
Conditions: str. MC2 155, 144 h
assayMetric: MIC90 (µM)
Answers are plain numbers, in µM.

querySmiles	target	unitString	observedMeasurement
Oc1nc2ccccc2c(O)c1-c1ccccc1	Mycolicibacterium smegmatis	µM	23.5
COc1ccc2c(O)c(-c3ccccc3)c(=O)[nH]c2c1	Mycolicibacterium smegmatis	µM	19.5
Cc1cc2[nH]c(=O)c(-c3ccccc3)c(O)c2cc1C	Mycolicibacterium smegmatis	µM	17.3
Cc1c(O)c2ccccc2[nH]c1=O	Mycolicibacterium smegmatis	µM	23.2
CC(=O)Oc1c(-c2ccccc2)c(=O)[nH]c2ccc(F)cc12	Mycolicibacterium smegmatis	µM	9.5
O=c1[nH]c2ccc(F)cc2c(O)c1-c1ccccc1	Mycolicibacterium smegmatis	µM	8.4
COc1ccc2[nH]c(=O)c(-c3ccccc3)c(O)c2c1	Mycolicibacterium smegmatis	µM	15.3
Cc1ccc2[nH]c(=O)c(-c3ccccc3)c(O)c2c1	Mycolicibacterium smegmatis	µM	19.2

Go through the list and state MIC90 for each entry.
1. O=c1[nH]c2c(O)cccc2c(O)c1-c1ccccc1
2. COc1cccc2c(O)c(-c3ccccc3)c(O)nc12
3. O=c1[nH]c2ccc(O)cc2c(O)c1-c1ccccc1
4. O=c1[nH]c2cc(O)ccc2c(O)c1-c1ccccc1

Given back:
20
15.1
16.8
18.5

O=c1c(-c2ccccc2)c(O)c2ccccc2n1-c1ccccc1 yielded MIC90 of 10.3

----------
Task for the reader: assign each of the following molecules its reported CC50 at 24 h.
Assay: Cytotoxicity against human MRC5 cells assessed as reduction in cell viability after 24 hrs by neutral red uptake assay
Format: cell-based
Numbers only, in µM.

Use the examples below as a reference point.
querySmiles	CC50 at 24 h / µM
COc1ccc2c(O)c(-c3ccccc3)c(=O)[nH]c2c1	59
COc1ccc2[nH]c(=O)c(-c3ccccc3)c(O)c2c1	75.4

Go through the list and state CC50 at 24 h for each entry.
1. COc1cccc2c(O)c(-c3ccccc3)c(O)nc12
2. Cc1cc2[nH]c(=O)c(-c3ccccc3)c(O)c2cc1C
3. Cc1c(O)c2ccccc2[nH]c1=O
4. O=c1[nH]c2c(O)cccc2c(O)c1-c1ccccc1
5. CC(=O)Oc1c(-c2ccccc2)c(=O)[nH]c2ccc(F)cc12
6. O=c1[nH]c2ccc(F)cc2c(O)c1-c1ccccc1

Given back:
1. 104
2. 61.8
3. 84.7
4. 84.1
5. 88.4
6. 67.4

Go through the list and state CC50 at 24 h for each entry.
1. Oc1nc2ccccc2c(O)c1-c1ccccc1
2. O=c1[nH]c2cc(O)ccc2c(O)c1-c1ccccc1

Given back:
[96.5, 92.1]

----------
Task for the reader: assign each of the following molecules its reported CC50 at 24 h.
Assay: Cytotoxicity against human MRC5 cells assessed as reduction in cell viability after 24 hrs by neutral red uptake assay
Type: cell-based

Use the examples below as a reference point.
querySmiles	CC50 at 24 h
O=c1c(-c2ccccc2)c(O)c2ccccc2n1-c1ccccc1	> 128 µM
Cc1ccc2[nH]c(=O)c(-c3ccccc3)c(O)c2c1	> 128 µM

Consider the additional molecule presented here.
O=c1[nH]c2ccc(O)cc2c(O)c1-c1ccccc1 yielded CC50 at 24 h of > 128 µM
